target: BSA (Bos taurus); assay: Plasma protein binding of metoprolol in BSA by ultrafiltration and UPLC; format: in vitro ADME, bovine; details: bovine, BSA solution
measurementType: fraction unbound at 60 min, 0.5 μg mL^−1
Lab note: jot down the number only; don't add units.

The compound identified as COCCc1ccc(OCC(O)CNC(C)C)cc1 (stereo not shown) registered its fraction unbound at 60 min, 0.5 μg mL^−1 at 0.718

----------
biological target: BSA (Bos taurus, UniProt P02769); assay: Plasma protein binding of metoprolol in BSA by ultrafiltration and UPLC; assay type: in vitro ADME, bovine; conditions: bovine, BSA solution
Sequence (P02769 25-607): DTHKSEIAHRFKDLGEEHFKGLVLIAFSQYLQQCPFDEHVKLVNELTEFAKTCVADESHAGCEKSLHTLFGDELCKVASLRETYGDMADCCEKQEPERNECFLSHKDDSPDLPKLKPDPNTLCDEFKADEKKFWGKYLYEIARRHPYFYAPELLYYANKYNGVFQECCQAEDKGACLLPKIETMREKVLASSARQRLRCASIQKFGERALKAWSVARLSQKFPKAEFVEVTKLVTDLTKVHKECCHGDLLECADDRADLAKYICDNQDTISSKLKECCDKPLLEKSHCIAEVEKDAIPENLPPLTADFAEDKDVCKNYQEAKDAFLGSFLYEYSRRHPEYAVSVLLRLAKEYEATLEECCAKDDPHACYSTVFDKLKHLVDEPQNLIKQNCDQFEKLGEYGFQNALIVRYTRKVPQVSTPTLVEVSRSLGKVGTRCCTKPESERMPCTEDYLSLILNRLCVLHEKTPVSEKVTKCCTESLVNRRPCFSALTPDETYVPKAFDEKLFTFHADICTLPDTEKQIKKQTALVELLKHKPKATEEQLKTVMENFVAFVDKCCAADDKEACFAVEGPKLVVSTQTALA
measurementType: fraction unbound at 60 min, 2 μg mL^−1
Hey, just send me the number, nothing else.

Briefly, fraction unbound at 60 min, 2 μg mL^−1 measured for COCCc1ccc(OCC(O)CNC(C)C)cc1 (stereo not shown) [Metoprolol] : 0.716

Cited source for all entries: paper PMC9088703
